# System: Human rotavirus Wa group
# method: Anti-rotavirus assay, prevention of cytopathic effect in MA104 cells (mixed treatment)
# Format: cell-based
# details: Human rotavirus, MA104; rotavirus 0.01 MOI, MA-104 cells, 72 h, CPE
Form field: EC50 (one value per entry).
Note: unit µg/mL is implicit; provide only the numeric part.

Solved entries (count: 5):
# molecule, readout-unit, EC50
data = [
    ("COc1cc(C)cc2c1CN(C)C2=O [Compound 1, 4-Methoxy-2,6-dimethylisoindolin-1-one]", "µg/mL", 14.6),
    ("CC(=O)Cc1c(CO)ccc2c1OC(C)(C)CC2=O [Compound 4]", "µg/mL", 15.5),
    ("NC(=O)c1ncn([C@@H]2O[C@H](CO)[C@@H](O)[C@H]2O)n1 [Ribavirin, reference compound]", "µg/mL", 12.2),
    ("COc1cc(C)cc2c1CN(Cc1ccc3c(c1CC(C)=O)OC(C)(C)CC3=O)C2=O [Compound 5]", "µg/mL", 12.8),
    ("COc1cc(CCCO)cc2c1CN(C)C2=O [Compound 3]", "µg/mL", 13.6),
]

The record that follows has no EC50 shown yet.
Exercise: Request - read-out EC50 | tested on Human rotavirus Wa group | molecule COc1cc(CO)cc2c1CN(C)C2=O [Compound 2]
Solution: 14.8

---

# Test system: tobacco mosaic virus (TMV)
# method: Anti-TMV activity, half-leaf method
# Assay type: in vivo
# details: in Nicotiana glutinosa, read-out: % Inhibition at 20 µM
Classify as follows. Reported inhibition at 20 µM greater than or equal to 30%: Criterion met. Reported inhibition at 20 µM below: Criterion not met.

Consider the worked cases shown below.
# compound, class-name
data = [
    ("CNCC(=O)N[C@@H](CO)C(=O)N[C@H]1[C@H](O)[C@@H](O)[C@H](n2ccc(N)nc2=O)O[C@@H]1C(N)=O [Ningnanmycin, reference compound]", "Criterion met"),
    ("COc1cc(C)cc2c1CN(Cc1ccc3c(c1CC(C)=O)OC(C)(C)CC3=O)C2=O", "Criterion met"),
    ("COc1cc(C)cc2c1CN(C)C2=O", "Criterion not met"),
    ("CC(=O)Cc1c(CO)ccc2c1OC(C)(C)CC2=O", "Criterion met"),
    ("COc1cc(CO)cc2c1CN(C)C2=O", "Criterion met"),
]

Next item in the queue.
Exercise: Given "COc1cc(CCCO)cc2c1CN(C)C2=O" , state whether its inhibition at 20 µM is at least 30%.
Solution: Criterion met

---

# method: Cytotoxicity in MA-104 cells (MTT)
# Type: cell-based
# details: African green monkey; MA-104 cells, 72 h, MTT; read-out: CC50
measured-endpoint: CC50 at 72 h (µg/mL)
Note: unit µg/mL is implicit; provide only the numeric part.

Exercise: May I ask what CC50 at 72 h has been recorded for NC(=O)c1ncn([C@@H]2O[C@H](CO)[C@@H](O)[C@H]2O)n1 [Ribavirin, reference compound] ?
Solution: 234

---

# method: Cytotoxicity in MA-104 cells (MTT)
# Format: cell-based
# details: African green monkey
Form field: CC50 at 72 h (one value per entry).
Note: unit mg/L is implicit; provide only the numeric part.

Solved entries (count: 4):
# line-notation, assay-result
records = [
    ("COc1cc(CO)cc2c1CN(C)C2=O", 175),
    ("CC(=O)Cc1c(CO)ccc2c1OC(C)(C)CC2=O", 192),
    ("COc1cc(CCCO)cc2c1CN(C)C2=O", 208),
    ("COc1cc(C)cc2c1CN(Cc1ccc3c(c1CC(C)=O)OC(C)(C)CC3=O)C2=O", 154),
]

The record that follows has no CC50 at 72 h shown yet.
Exercise: May I ask what CC50 at 72 h has been recorded for "COc1cc(C)cc2c1CN(C)C2=O" ?
Solution: 142
